Target: Klenow fragment lacking exonuclease activity (KF exo−) (Escherichia coli, UniProt P00582, D355A/E357A)
Construct: enzyme solution of the Klenow fragment lacking exonuclease activity (KF exo^−, Amersham USB); purchased Amersham USB
Sequence (P00582 324-928 D355A/E357A): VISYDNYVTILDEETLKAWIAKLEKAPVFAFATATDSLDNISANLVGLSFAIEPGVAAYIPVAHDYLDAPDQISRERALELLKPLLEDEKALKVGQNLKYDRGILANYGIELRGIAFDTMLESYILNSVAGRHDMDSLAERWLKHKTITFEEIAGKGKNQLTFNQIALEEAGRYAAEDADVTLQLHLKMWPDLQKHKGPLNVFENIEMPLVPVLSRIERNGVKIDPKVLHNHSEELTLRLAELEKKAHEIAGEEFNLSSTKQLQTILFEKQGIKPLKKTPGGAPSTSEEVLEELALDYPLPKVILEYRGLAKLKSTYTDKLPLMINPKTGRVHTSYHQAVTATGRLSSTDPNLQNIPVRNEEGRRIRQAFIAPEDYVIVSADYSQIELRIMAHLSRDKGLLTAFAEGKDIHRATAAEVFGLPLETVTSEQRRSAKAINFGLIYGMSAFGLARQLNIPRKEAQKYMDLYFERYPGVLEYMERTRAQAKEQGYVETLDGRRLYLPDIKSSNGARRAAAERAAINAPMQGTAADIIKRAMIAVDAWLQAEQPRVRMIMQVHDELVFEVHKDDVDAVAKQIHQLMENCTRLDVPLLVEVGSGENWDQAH
Type: biochemical, E. coli
Details: template (N) = Pa, temp35N-2; 37° C.
Below, each entry is listed with its recorded Efficiency (Vmax/KM).

As a guide, the following entries are already answered.
Prompt line: I have this compound here, Nc1ncnc2c1ncn2[C@H]1C[C@H](O)[C@@H](COP(=O)(O)OP(=O)(O)OP(N)(=O)O)O1 [dATPN] , and I need its recorded Efficiency (Vmax/KM).
Response line: 1.8 × 10^3 % min^−1M^−1

Prompt line: Name the reported Efficiency (Vmax/KM) value associated with the compound NP(=O)(O)OP(=O)(O)OP(=O)(O)OC[C@H]1O[C@@H](n2cnc3c(-c4cccs4)ccnc32)C[C@@H]1O [dDsTPN]
Response line: 6.7 × 10^4 % min^−1M^−1

Prompt line: What measured Efficiency (Vmax/KM) goes with Nc1nc2c(ncn2[C@H]2C[C@H](O)[C@@H](COP(=O)(O)OP(=O)(O)OP(=O)(O)O)O2)c(=O)[nH]1 [dGTP, reference compound] ?
Response line: 8.8 × 10^2 % min^−1M^−1

Prompt line: Query (compound): Cc1cn([C@H]2C[C@H](O)[C@@H](COP(=O)(O)OP(=O)(O)OP(=O)(O)O)O2)c(=O)[nH]c1=O [dTTP, reference compound] ; field requested: Efficiency (Vmax/KM)
Response line: 1.1 × 10^2 % min^−1M^−1

Prompt line: Returns the measured Efficiency (Vmax/KM) for the input compound. Input: O=Cc1cccn1[C@H]1C[C@H](O)[C@@H](COP(=O)(O)OP(=O)(O)OP(=O)(O)O)O1 [dPaTP]
Response line: 1.5 × 10^3 % min^−1M^−1

Query compound follows.
Prompt line: Can you share its Efficiency (Vmax/KM)? I mean this compound: O=P(O)(O)OP(=O)(O)OP(=O)(O)OC[C@H]1O[C@@H](n2cnc3c(-c4cccs4)ccnc32)C[C@@H]1O [dDsTP]
Response line: 1.1 × 10^4 % min^−1M^−1

Where do these numbers come from? They come from patent US8030478B2.
